Biological target: herpes simplex viral ribonucleotide reductase (Human herpesvirus 1, UniProt P08543)
Construct: endogenous in cells
Sequence (P08543 whole entry): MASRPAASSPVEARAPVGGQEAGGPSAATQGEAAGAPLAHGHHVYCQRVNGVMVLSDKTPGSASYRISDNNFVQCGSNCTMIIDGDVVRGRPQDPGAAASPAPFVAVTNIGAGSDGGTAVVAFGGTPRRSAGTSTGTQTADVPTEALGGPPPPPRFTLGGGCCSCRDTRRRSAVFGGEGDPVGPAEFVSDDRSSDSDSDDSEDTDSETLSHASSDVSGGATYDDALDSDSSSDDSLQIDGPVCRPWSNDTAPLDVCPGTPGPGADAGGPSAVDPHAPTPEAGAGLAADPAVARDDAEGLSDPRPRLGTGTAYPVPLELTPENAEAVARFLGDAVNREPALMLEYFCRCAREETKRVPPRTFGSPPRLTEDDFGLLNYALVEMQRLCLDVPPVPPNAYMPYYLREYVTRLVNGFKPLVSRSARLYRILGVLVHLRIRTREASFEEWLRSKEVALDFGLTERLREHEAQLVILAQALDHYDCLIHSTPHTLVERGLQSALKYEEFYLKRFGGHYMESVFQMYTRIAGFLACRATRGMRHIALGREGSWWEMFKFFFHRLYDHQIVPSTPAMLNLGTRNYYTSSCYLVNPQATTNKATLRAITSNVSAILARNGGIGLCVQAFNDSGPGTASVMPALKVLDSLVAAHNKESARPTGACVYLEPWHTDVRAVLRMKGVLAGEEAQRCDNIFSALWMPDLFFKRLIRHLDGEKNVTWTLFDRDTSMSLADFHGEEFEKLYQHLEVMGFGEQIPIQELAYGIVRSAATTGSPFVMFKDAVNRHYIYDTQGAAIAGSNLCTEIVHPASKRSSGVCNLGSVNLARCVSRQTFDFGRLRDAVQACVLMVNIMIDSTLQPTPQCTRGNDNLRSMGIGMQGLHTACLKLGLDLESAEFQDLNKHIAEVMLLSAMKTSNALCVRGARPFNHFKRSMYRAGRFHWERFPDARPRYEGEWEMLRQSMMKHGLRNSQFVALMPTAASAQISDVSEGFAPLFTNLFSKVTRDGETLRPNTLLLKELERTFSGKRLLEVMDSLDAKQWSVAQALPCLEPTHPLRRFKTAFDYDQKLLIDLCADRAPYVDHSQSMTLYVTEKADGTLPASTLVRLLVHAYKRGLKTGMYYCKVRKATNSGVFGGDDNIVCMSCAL
Test: biochemical
Assay type: biochemical, herpes simplex virus
quantity-name: pIC50
Scale note: pIC50 = -log10(concentration in M).

H-YAPAVINDL-OH | 4.43
H-YAGAVLDDL-OH | 4.05
Ac-YAGTIVNDL-OH | 5.31
H-FAGAVVNDL-OH | 4.17
Ac-YAGTVIQDL-OH | 4.44
H-YAGAVVNDI-OH | 3.96

Given Ac-FVINDL-OH [Ac--Phe--Val--Ile--Asn--Asp--Leu--OH] , state its recorded pIC50.
4.38

Sample "Ac-YAATVINDL-OH" — what was its pIC50?
4.82

Record request: pIC50 value, item Ac-YVINDL-OH [Ac--Tyr--Val--Ile--Asn--Asp--Leu--OH]
4.57

Requested read-out: pIC50. Entry: Ac-YVVNDL-OH [Ac--Tyr--Val--Val--Asn--Asp--Leu--OH]
4.51

Fill in the blank: the reported pIC50 of "Ac-YSVINDL-OH" is ____.
4.11

Which pIC50 value is on record for H-YVVNDL-OH [H--Tyr--Val--Val--Asn--Asp--Leu--OH] ?
4.09

----------
Quick reference: pIC50 of the listed items.
Molecular target: herpes simplex viral ribonucleotide reductase (Human herpesvirus 1, UniProt P08543)
Construct: endogenous in cells
Experiment: biochemical
Assay type: biochemical, herpes simplex virus
Settings: IC50 (concentration producing 50% of the maximal inhibition of enzyme activity)
When answering, recall that pIC50 equals minus log10 of the concentration in mol/L, and write that number alone.

Ac-YAGVVINDL-OH | 5.37

Next substance, please.
Requested read-out: pIC50. Entry: "Ac-YSGTVINDL-OH"
5.72

----------
Target: herpes simplex viral ribonucleotide reductase (Human herpesvirus 1, UniProt P08543)
Construct: endogenous in cells
Test: biochemical
Assay type: biochemical, herpes simplex virus
Settings: read-out: IC50 (concentration producing 50% of the maximal inhibition of enzyme activity)
Listing of entries alongside the reported log10 IC50.
Scale type: logarithmic (base 10). Underlying IC50 unit: µM.

CC(=O)N[C@H](Cc1ccc(O)cc1)C(=O)N[C@@H](C)C(=O)NCC(=O)N[C@@H](C)C(=O)N[C@H](C(=O)N[C@H](C(=O)N[C@@H](CC(N)=O)C(=O)N[C@@H](CC(=O)O)C(=O)N[C@@H](CC(C)C)C(=O)O)C(C)C)C(C)C | 2.22
CC(=O)N[C@@H](Cc1ccc(O)cc1)C(=O)N[C@@H](C)C(=O)NCC(=O)N[C@@H](C)C(=O)N[C@H](C(=O)N[C@H](C(=O)N[C@@H](CC(N)=O)C(=O)N[C@@H](CC(=O)O)C(=O)N[C@@H](CC(C)C)C(=O)O)C(C)C)C(C)C | 1.30
COc1ccc(C[C@H](N)C(=O)N[C@@H](C)C(=O)NCC(=O)N[C@@H](C)C(=O)N[C@H](C(=O)N[C@H](C(=O)N[C@@H](CC(N)=O)C(=O)N[C@@H](CC(=O)O)C(=O)N[C@@H](CC(C)C)C(=O)O)C(C)C)C(C)C)cc1 | 1.94
CC(C)C[C@H](NC(=O)[C@H](CC(=O)O)NC(=O)[C@H](CC(N)=O)NC(=O)[C@@H](NC(=O)[C@@H](NC(=O)[C@H](C)NC(=O)CNC(=O)[C@H](C)NC(=O)[C@@H](N)Cc1ccc(O)cc1)C(C)C)C(C)C)C(N)=O | 2.28

Next:
Fill blank: measured log10 IC50 of the compound "CC(=O)N[C@@H](Cc1ccc(O)cc1)C(=O)N[C@H](C)C(=O)NCC(=O)N[C@@H](C)C(=O)N[C@H](C(=O)N[C@H](C(=O)N[C@@H](CC(N)=O)C(=O)N[C@@H](CC(=O)O)C(=O)N[C@@H](CC(C)C)C(=O)O)C(C)C)C(C)C" is ____.
2.36

----------
IC50 values, listed per item
Molecular target: herpes simplex viral ribonucleotide reductase (Human herpesvirus 1)
Construct: endogenous in cells
Test: biochemical
Type: biochemical, herpes simplex virus
Conditions: 75 μg enzyme preparation (21.6 units mg^-1); mean of four assays
Where no end group is shown, it is not given here.

H-HAGAVVNDL-OH | 400 µM

Param item = "Ac-Y(Ac)AGFVINDL" ; retrieve measured IC50.
14 µM

I would be grateful if you could share the reported IC50 for "H-YAGTVINDL-OH" .
15 µM

What does the data say about its IC50? Entry: "Ac-YAGFVINDL-OH"
4.2 µM

Look at this substance and give its reported IC50. "H-YSGAVVNDL-OH"
90 µM

----------
Here, each record is paired with measured pIC50 data.
Molecular target: herpes simplex viral ribonucleotide reductase (Human herpesvirus 1, UniProt P08543)
Construct: endogenous in cells
Assay: biochemical
Format: biochemical, herpes simplex virus
Conditions: read-out: IC50 (concentration producing 50% of the maximal inhibition of enzyme activity)
Quick note: pIC50 means taking -log10 of the concentration in moles per liter.

Reported pIC50 for "Ac-YGAVVNDL-OH" : what is it?
3.82

What does the record list as pIC50 for H-YAVVNDL-OH [H--Tyr--Ala--Val--Val--Asn--Asp--Leu--OH] ?
3.47

----------
Biological target: herpes simplex viral ribonucleotide reductase (Human herpesvirus 1, UniProt P08543)
Construct: endogenous in cells
Test: biochemical
Assay type: biochemical, herpes simplex virus
Details: read-out: IC50 (concentration producing 50% of the maximal inhibition of enzyme activity); 75 μg enzyme preparation (21.6 units mg^-1); mean of four assays
IC50 values by entry
Report the value in µM with no unit label.

H-KYAGAVVNDL-OH | 68
Ac-YAVVNDL-OH | 330

Next:
Return reported IC50; argument: "H-YAGPVVNDL-OH"
48

Values from patent US5066783A
